Measured values drawn from PubChem BioAssay (Tox21) for this set.

# testedOn: Androgen receptor (Homo sapiens)
# measurementDescription: qHTS assay to identify small molecule antagonists of the androgen receptor (AR) signaling pathway using the MDA cell line in the presence of 0.5 nM R1881 (AID 1259243); note: nearly all actives have a fitted effect of over 50% in size
# setupConditions: MDA-kb2 MMTV-luciferase, R1881 0.5 nM, 16 h; series mostly up to 92.4 µM
Records with an inconclusive call do not appear. Calls of active or inactive are those of the source. Calls come from the whole dose curve; as a rule, active = well fitted inhibition curve with a large enough effect in the repeat runs; inconclusive = weak or mixed curves; inactive = no such curve, though single readings can be large or run the other way.
Parameter call: string, one of TRUE = active, FALSE = inactive

Solved cases (5 shown):
compound	answerLabel
CCOC(=O)c1nc(C(Cl)(Cl)Cl)n(-c2ccc(Cl)cc2Cl)n1	TRUE
CCCCCCCCCCCCCCCCCC[N+](C)(C)Cc1ccccc1	TRUE
CC1(C)CCC(C)(C)c2cc(C(=O)Nc3ccc(C(=O)O)cc3)ccc21	FALSE
Cc1cc(CCN2CCN(c3nsc4ccccc34)CC2)cc2c1NC(=O)CC2(C)C	TRUE
O=C(c1ccc(F)cc1)C1CCN(CCn2c(=O)[nH]c3ccccc3c2=O)CC1	FALSE

Req: # lookup: test call for "NNc1nc(-c2ccc([N+](=O)[O-])cc2)cs1"
Resp: TRUE

Req: // repeat for "COC(=O)c1cc(Cl)ccc1OC" and report
Resp: FALSE

Req: Proceed to "C=C(C)C(=O)OCC[N+](C)(C)C"
Resp: TRUE

Req: # repeat for "CS(=O)(=O)CCNCc1ccc(-c2ccc3ncnc(Nc4ccc(OCc5cccc(F)c5)c(Cl)c4)c3c2)o1"
Resp: TRUE
